ASSAY_TEXT: 23°C color optical density (A23): absorbancy difference ε(240)-ε(0) after 240 s light irradiation at 23°C
Assay type: physicochemical
CONDITION_NOTES: photochromic laminate by coating method, 240 s irradiation, at the maximum absorption wavelength
# reported A23 (-); entries follow

CPD_SMILES	A23 (-)
CCCOc1ccc(C2(c3ccc(OCCC)cc3)C=Cc3c4c(c5cc(N(C)c6ccc(C)cc6)c(OC)cc5c3O2)-c2ccccc2C4(CCCCOC)CCCCOC)cc1	1.22 -
CCCC1(CCC)c2ccccc2-c2c1c1c(c3cc(OC)c(N4CCOc5ccccc54)cc23)OC(c2ccc(OC)cc2)(c2ccc(OC)cc2)C=C1	1.3 -

# next compound below
Endpoint output: A23 (-) of CCCOc1ccc(C2(c3ccc(OCCC)cc3)C=Cc3c4c(c5cc(N(CCOC)c6ccccc6)c(OC)cc5c3O2)-c2ccccc2C42CCCCCCC2)cc1 . Value?
1.34 -

Each recorded value in this set is attributed to patent EP4692071A1.
